Tgt: PE-labeled human PD-L1-Ig binding to Jurkat cell line over-expressing human PD-1 (Jurkat-PD-1) (Homo sapiens, UniProt Q15116)
Construct: expressed in transfected cells; host or cells: Jurkat
Sequence (Q15116 25-288): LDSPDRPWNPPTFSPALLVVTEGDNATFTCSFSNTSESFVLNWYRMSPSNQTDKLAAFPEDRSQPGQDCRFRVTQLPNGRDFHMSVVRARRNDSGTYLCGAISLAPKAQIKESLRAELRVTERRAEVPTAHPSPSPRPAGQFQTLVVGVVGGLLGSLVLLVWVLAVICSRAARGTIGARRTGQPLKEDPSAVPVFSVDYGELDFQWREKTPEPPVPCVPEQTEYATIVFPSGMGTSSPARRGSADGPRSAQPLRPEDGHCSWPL
Protocol description: Jurkat-PD-1 Cell Binding High-Content Screening Assay (CBA): Method 1
Condition info: Jurkat HPDL1 PD1 IC50 (uM) (Method 1), Jurkat-hPD-1 cells, PE-labeled PD-L1-Ig 20 nM final
Bridge positions count the residues as written; N and C are the ends. Square brackets hold non-standard residues; d marks the D form. Peptide text beside a SMILES is read from it. Bip = N[C@@H](Cc1ccc(-c2ccccc2)cc1)C(=O)O; pY = N[C@@H](Cc1ccc(OP(=O)(O)O)cc1)C(=O)O; NMeA = CN[C@@H](C)C(=O)O; Dab = NCC[C@H](N)C(=O)O
Property name: IC50 (µM)
State the answer as a number, implicitly in µM.

CC(C)C[C@@H]1NC(=O)[C@H](CCN)NC(=O)[C@@H](CC(C)C)NC(=O)[C@H](C)N(C)C(=O)[C@H](CCCNC(=N)N)NC(=O)[C@H](Cc2ccc(-c3ccccc3)cc2)NC(=O)[C@H](C(C)C)NC(=O)[C@H](Cc2c[nH]c3ccccc23)NC(=O)[C@H](CC(=O)O)NC(=O)[C@H](Cc2ccc(O)cc2)NC(=O)[C@H](CC(N)=O)NC(=O)CSC[C@@H](C(=O)N[C@@H](C)C(N)=O)NC(=O)[C@H](CO)NC(=O)[C@H](C(C)C)NC1=O [Compound 1054] ({CH2CO}-NYDWV[Bip]R[NMeA][dL][Dab]LVSCA-NH2; thioether N-14)    0.09
CC(C)C[C@@H]1NC(=O)[C@H](Cc2c[nH]c3ccccc23)NC(=O)[C@H](CC(=O)O)NC(=O)[C@H](Cc2ccc(OP(=O)(O)O)cc2)NC(=O)[C@H](Cc2ccccc2)NC(=O)CSC[C@@H](C(=O)N[C@@H](C)C(N)=O)NC(=O)[C@H](CO)NC(=O)[C@H](C(C)C)NC(=O)[C@H](CC(C)C)NC(=O)[C@H](CC(N)=O)NC(=O)[C@@H](C)NC(=O)[C@H](C)N(C)C(=O)[C@H](C(C)C)NC(=O)[C@H](Cc2ccc(-c3ccccc3)cc2)NC1=O [Compound 1756] ({CH2CO}-F[pY]DWL[Bip]V[NMeA][dA]NLVSCA-NH2; thioether N-14)    0.03

Next compound, IC50 to be filled in.
So what does the record say about IC50 for "C=C1N[C@@H](Cc2ccccc2)C(=O)N(C)[C@@H](C)C(=O)N[C@H](CC(C)C)C(=O)N[C@@H](CC(N)=O)C(=O)N[C@@H](CC(C)C)C(=O)N[C@@H](Cc2ccccc2)C(=O)N[C@@H](CO)C(=O)N[C@H](C(=O)N[C@@H](C)C(N)=O)CSCC(=O)N[C@@H](Cc2ccc(OCC(=O)O)cc2)C(=O)N[C@@H](Cc2ccc(C(=O)O)cc2)C(=O)N[C@@H](CC(=O)O)C(=O)N[C@@H](Cc2cccc(C)c2)C(=O)N[C@@H](CC(C)C)C(=O)N[C@H]1Cc1ccc(-c2ccccc2)cc1" ? 0.73

====

Tgt: PE-labeled human PD-L1-Ig binding to Jurkat cell line over-expressing human PD-1 (Jurkat-PD-1) (Homo sapiens)
Construct: expressed in transfected cells; host or cells: Jurkat
Protocol description: Jurkat-PD-1 Cell Binding High-Content Screening Assay (CBA): Method 1
Condition info: Jurkat-hPD-1 cells, PE-labeled PD-L1-Ig 20 nM final; read-out: Jurkat HPDL1 PD1 IC50 (uM) (Method 1)
Numbered stars: 1 amine (or outer) side, 2 acyl side, 3 side chain; on linkers, the order of the positions; unused ones are H or OH. Bridge positions count the residues as written; N and C are the ends. Square brackets hold non-standard residues; d marks the D form. Peptide text beside a SMILES is read from it. X35 = O=C([C@H](Cc1ccc(-c2cccc(F)c2)cc1)N[*:1])[*:2]; Bip = N[C@@H](Cc1ccc(-c2ccccc2)cc1)C(=O)O; Phe(3-Me) = Cc1cccc(C[C@H](N)C(=O)O)c1; Cit = NC(=O)NCCC[C@H](N)C(=O)O; NMeA = CN[C@@H](C)C(=O)O; Dab = NCC[C@H](N)C(=O)O
Property name: IC50
Put your answer as a value accompanied by its unit after it.

Known results for compounds:
CC(C)C[C@@H]1NC(=O)[C@H](Cc2c[nH]c3ccccc23)NC(=O)[C@H](CC(=O)O)NC(=O)[C@H](Cc2ccc(O)cc2)NC(=O)[C@H](Cc2ccccc2)NC(=O)CSC[C@@H](C(=O)N[C@@H](C)C(N)=O)NC(=O)[C@H](CO)NC(=O)[C@H](C(C)C)NC(=O)[C@H](CC(C)C)NC(=O)[C@H](CC(N)=O)NC(=O)[C@@H](C)NC(=O)[C@H](C)N(C)C(=O)[C@H](C(C)C)NC(=O)[C@H](Cc2ccc(-c3cccc(F)c3)cc2)NC1=O [Compound 1759] ({CH2CO}-FYDWL[X35]V[NMeA][dA]NLVSCA-NH2; thioether N-14)    0.03 µM
CC(C)C[C@@H]1NC(=O)[C@H](CCCCN)NC(=O)[C@@H](CC(C)C)NC(=O)[C@H](C)N(C)C(=O)[C@H](Cc2cnc[nH]2)NC(=O)[C@H](Cc2ccc(-c3ccccc3)cc2)NC(=O)[C@H](C(C)C)NC(=O)[C@H](Cc2c[nH]c3ccccc23)NC(=O)[C@H](CC(=O)O)NC(=O)[C@H](Cc2ccc(O)cc2)NC(=O)[C@H](CC(N)=O)NC(=O)CSC[C@@H](C(=O)N[C@@H](C)C(N)=O)NC(=O)[C@H](CO)NC(=O)[C@H](C(C)C)NC1=O [Compound 1482] ({CH2CO}-NYDWV[Bip]H[NMeA][dL]KLVSCA-NH2; thioether N-14)    0.11 µM
CC(C)C[C@@H]1NC(=O)[C@H](Cc2c[nH]c3ccccc23)NC(=O)[C@H](CC(=O)O)NC(=O)[C@H](Cc2ccc(O)cc2)NC(=O)[C@H](Cc2ccccc2)NC(=O)CSC[C@@H](C(=O)NCC(N)=O)NC(=O)[C@H](CO)NC(=O)[C@H](C(C)C)NC(=O)[C@H](CC(C)C)NC(=O)[C@H](CC(=O)O)NC(=O)[C@H](CCCCN)NC(=O)[C@H](C)N(C)C(=O)[C@H](C(C)C)NC(=O)[C@H](Cc2ccc(-c3ccccc3)cc2)NC1=O [Compound 1826] ({CH2CO}-FYDWL[Bip]V[NMeA]KDLVSCG-NH2; thioether N-14)    0.76 µM

Next compound, IC50 to be filled in.
So what does the record say about IC50 for Cc1cccc(C[C@@H]2NC(=O)[C@H](CC(=O)O)NC(=O)[C@H](Cc3ccc(O)cc3)NC(=O)[C@H](CC(N)=O)NC(=O)CSC[C@@H](C(N)=O)NC(=O)[C@H]([C@@H](C)O)NC(=O)[C@H](C(C)C)NC(=O)[C@H](CC(C)C)NC(=O)[C@H](CCN)NC(=O)[C@@H](CC(C)C)NC(=O)[C@H](C)N(C)C(=O)[C@H](CCCNC(N)=O)NC(=O)[C@H](Cc3ccc(-c4ccccc4)cc3)NC(=O)[C@H](C(C)C)NC2=O)c1 [Compound 1641] ({CH2CO}-NYD[Phe(3-Me)]V[Bip][Cit][NMeA][dL][Dab]LVTC-NH2; thioether N-14) ? 0.14 µM
